# testMethodNotes: Pharmacokinetic study of the inhibitors in mice blood plasma (PO and IV)
# Format: in vivo
# conditionNotes: mouse, plasma, iv, 30 mg/kg, IV 30 mg/kg, 2 h, n=3 (outliers excluded), read-out: Concentration in Plasma, Mean
measurementLabel: concentration at 2 h (ng/mL)
Numeric answer only, unit ng/mL assumed.

query: Would you mind telling me what concentration at 2 h value was observed for COc1cccc(CNc2ccc(S(=O)(=O)Nc3cccc(C(F)(F)F)c3)cc2)c1O ?
result: 199

query: # query: concentration at 2 h of entry COc1cccc(CNc2ccc(S(=O)(=O)Nc3cccc(C4(C(F)(F)F)CC4)c3)cc2)c1O
result: 112

Consider now this further compound.
query: Any idea what its concentration at 2 h is? The compound is COc1cccc(CNc2ccc(S(=O)(=O)Nc3cccc(Cl)c3)cc2)c1O
result: 77.4
